Origin of measurements: the supplement of paper PMC8967900

Tested on: ALL-PO;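 further: ALL cell lines in 384-well plates, five doses spanning 10,000-fold, each plate scaled between vehicle and 100 µmol/L benzalkonium chloride controls, sDSS an adapted area-under-curve metric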
Experiment: selective drug sensitivity score (sDSS, relative to normal bone marrow) (sDSS (score)); higher = more potent and effective on the cell line relative to normal bone marrow cells
Conditions: 72 h
Label rule met when selective drug sensitivity score is at or above 8; otherwise label rule not met.

Worked examples, 3 compounds total:
compound: CCC(C)n1ncn(-c2ccc(N3CCN(c4ccc(OCC5COC(Cn6cncn6)(c6ccc(Cl)cc6Cl)O5)cc4)CC3)cc2)c1=O (configuration not stated) [Itraconazole] (top concentration 5000 nM)
assigned.class: rule not met
//
compound: O=C(/C=C\n1cnc(-c2cc(C(F)(F)F)cc(C(F)(F)F)c2)n1)NNc1ccccn1 [Verdinexor] (top concentration 1000 nM)
assigned.class: rule not met
//
compound: Cc1cc(Nc2cc(N3CCN(C)CC3)nc(/C=C/c3ccccc3)n2)n[nH]1 [ENMD-2076] (top concentration 10000 nM)
assigned.class: rule met

Now consider a different compound.
Does selective drug sensitivity score meet or surpass 8 for FC(F)c1nc2ccccc2n1-c1nc(N2CCOCC2)nc(N2CCOCC2)n1 [ZSTK474] (top concentration 10000 nM) ?
rule met
